This collection of values is drawn from PubChem BioAssay.

The entries below are paired with their reported composite z-score.
Test: small-molecule microarray binders of probe aWnt5a, primary screen, biochemical, biotinylated probe, 635/667 nm fluorescence (AID 1113);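 note: score merges 667 nm fluorescence intensity with signal-to-noise per printed feature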
Details: higher = more signal

molecule: COCCCNC(=O)[C@@]1(C)c2ccccc2C(=O)N(Cc2cc(C(F)(F)F)cc(C(F)(F)F)c2)[C@H]1c1ccc(CO)cc1
composite z-score: -0.154

molecule: CCCC[C@@H]1C[C@H]1[C@@H](NC(=O)c1ccc(-c2ccccc2)cc1)c1ccc(-c2ccccc2)cc1
composite z-score: -0.0459

molecule: COC(=O)[C@@]1(Cc2ccc(F)cc2)[C@H]2c3cc(C(=O)N4CCCC4)n(Cc4cccc5ccccc45)c3C[C@H]2CN1C(=O)c1ccccc1
composite z-score: 0.0859

molecule: Cc1ccc(S[C@]2(C(=O)O)CC(=O)N(C3Cc4ccccc4C3)[C@@H]2c2ccc(CO)cc2I)cc1
composite z-score: -0.117

molecule: O=C(CS)NCCCCCCNC(=O)[C@H]1C[C@H]2C(=O)NCC(=O)N2[C@H]1c1ccc(O)cc1
composite z-score: -0.171

molecule: COc1ccc(C(=O)Nc2cccc(CN3C(=O)[C@]4(O[C@H](CC(=O)N5CCC[C@H]5CO)[C@@H]([Si](C)(C)c5ccc(OC)cc5)[C@@H]4C)c4ccccc43)c2)cc1
composite z-score: -0.0285

molecule: Cc1ccc(F)cc1S(=O)(=O)N[C@@H]1CCN(Cc2ccc(-c3ccccc3)cc2)C1
composite z-score: -0.129

molecule: Cc1ccc(S[C@]2(C(=O)NC3CC3)CC(=O)N(Cc3ccccc3)[C@@H]2c2ccc(CO)cc2)cc1
composite z-score: -0.197

molecule: NC(=O)NCC#Cc1ccc2c(c1)[C@]1(C(=O)N2)[C@H](C(=O)NC[C@H](O)c2ccccc2)[C@H]2C(=O)O[C@H](c3ccccc3)[C@H](c3ccccc3)N2[C@@H]1c1ccc(O)cc1
composite z-score: 0.551

molecule: COc1cc(CO)ccc1OC(C)=O
composite z-score: 0.127

molecule: CN1C(=O)C2C=CC(C(O)c3ccccn3)N(Nc3ccccc3)C2C1=O (stereo not given)
composite z-score: -0.0647

molecule: CCOC(=O)C[C@H]1[C@H](OC(=O)c2ccccc2-c2ccccc2)[C@@H](NC(=O)Cc2ccc(OC)cc2)c2cc(OCCCO)ccc2N1C(=O)c1ccccc1
composite z-score: -0.0519

molecule: O=C(O)[C@H]1C[C@H]2C(=O)NCC(=O)N2[C@H]1c1ccc(O)cc1
composite z-score: -0.147

molecule: COC(=O)[C@@]1(Cc2ccccc2)[C@H]2c3cc(C(=O)N(C)C)n(Cc4cc(C)n(C)n4)c3C[C@H]2CN1C(=O)c1ccccc1
composite z-score: -0.319

molecule: N#Cc1ccc(NN2C(C(O)c3cccs3)C=CC3C(=O)N(c4ccccc4)C(=O)C32)cc1 (stereo not given)
composite z-score: 0.0709

molecule: O=C1O[C@H](c2ccccc2)[C@H](c2ccccc2)N2[C@H]1[C@@H](C(=O)Nc1nc3ccccc3s1)[C@]1(C(=O)Nc3ccccc31)[C@H]2c1ccc(O)cc1
composite z-score: -0.0903

molecule: CC(C)CNC(=O)[C@@]1(c2ccc([N+](=O)[O-])cc2)CC(=O)N(CC23CC4CC(CC(C4)C2)C3)[C@@H]1c1ccc(CO)cc1I
composite z-score: -0.0587

molecule: O=c1cccc(C=Cc2ccccc2)o1
composite z-score: -0.145

molecule: [N-]=[N+]=Nc1ccccc1[C@@H]1OC(c2ccc(OCCCO)cc2)=N[C@]1(CCS(=O)(=O)c1ccccc1)C(=O)N1CCOCC1
composite z-score: 0.16

molecule: Cc1ccc([C@H]2[C@H](C(=O)O)[C@H](Sc3ccccc3)[C@@H](C(C)C)N2S(=O)(=O)c2ccc(C)cc2)cc1
composite z-score: 0.0718

molecule: COc1cc2c(cc1OC)CN(C(=O)[C@@H]1[C@H]3C(=O)O[C@H](c4ccccc4)[C@H](c4ccccc4)N3[C@H](c3ccccc3OCCO)[C@@]13C(=O)Nc1ccc(C#CCNC(N)=O)cc13)CC2
composite z-score: 0.0744

molecule: CC(C)C(=C=CC[C@@H](O)c1ccccc1OCCO)C[C@@H](O)c1ccccn1
composite z-score: -0.0751

molecule: C[N+](C)(C)CCCCCCNC(=O)[C@H]1C[C@H]2C(=O)N3CCC[C@H]3C(=O)N2[C@H]1c1ccc(O)cc1
composite z-score: -0.178

molecule: COc1ccc(CCNC(=O)[C@@H]2c3ccccc3C(=O)N(Cc3ccc(OC(F)(F)F)cc3)[C@H]2c2ccc(CO)cc2)cc1
composite z-score: -0.146

molecule: O=C1C2C=CC(C(O)c3ccc(-c4ccccc4)s3)N(n3cnnc3)C2C(=O)N1Cc1ccccc1 (stereo not given)
composite z-score: -0.096

molecule: CCOC(=O)[C@H]1C/C=C/C[C@H](C(=O)OCC)C(=O)O[C@H]2[C@@H](OC)O[C@H](CO)[C@@H](OC(=O)Nc3ccc4c(c3)OCO4)[C@@H]2OC1=O
composite z-score: 0.0608

molecule: COCCOC(=O)N1C(=O)[C@@]2(c3cc(C#CCNC(N)=O)ccc31)[C@H](c1ccccc1OCCO)N1[C@H](c3ccccc3)[C@H](c3ccccc3)OC(=O)[C@H]1[C@@H]2C(N)=O
composite z-score: 0.0253

molecule: Cc1cc(C)c(C(O)C2C=CC3C(=O)N(C)C(=O)C3N2Nc2ccccc2)c(C)c1 (stereo not given)
composite z-score: 0.881

molecule: CCCCC=C[C@@H](NC(=O)c1ccco1)c1ccccc1
composite z-score: 0.0151

molecule: [N-]=[N+]=NCc1ccccc1C[C@@]1(C(=O)N2CCOCC2)N=C(c2ccc(OCCCO)cc2)O[C@@H]1c1ccccc1CN=[N+]=[N-]
composite z-score: 0.324
